# Test system: Rattus norvegicus
# EXPERIMENT_DESCRIPTION: Antiinflammatory activity in po dosed rat assessed as inhibition of carrageenan-induced edema administered in 1% w/v arabic gum
# Assay type: functional
# CONDITION_NOTES: Rattus norvegicus, po; read-out: ED50
REPORTED_METRIC: ED50 (mg/kg)
Give bare numbers, in mg/kg.

The following compounds have reported results that may help.
CC(C)C1Cc2ccc(CC(=O)O)cc2C1 (racemic) ... 155
CCC1Cc2ccc(C(C)C(=O)O)cc2C1 (racemic) ... 36
CC(C(=O)O)c1ccc2c(c1)CC(C(C)C)C2 (racemic) ... 29

Moving on to another compound below.
Query :: Which ED50 value belongs to CC(C)Cc1ccc(C(C)C(=O)O)cc1 (stereo not given) ?
Result :: 44
